tested on: NCI-H23; test: NCI tumour cell line growth inhibition, 48 h
Active and inactive are the calls of the source. No stated cut-off is given here; in the data, active = GI50 up to about 1.1 µM and inactive = higher.
Recorded measurements of GI50, one per entry

substance.smiles: Cc1ccc(S(=O)(=O)C2=C(C(C)C)N=NC2(C)C)cc1
GI50: 48.8 µM (inactive)
--
substance.smiles: CCOC(=O)CSc1nc(-c2ccc(OC)cc2)c(C#N)c(=O)[nH]1
GI50: > 100 µM (inactive)
--
substance.smiles: C[C@@H]1S[C@H](c2ccccc2F)N2Cc3ccccc3N=C12
GI50: 31.3 µM (inactive)
--
substance.smiles: CC(C)(C)OC(=O)NCC(=O)N1CCCN(C(=O)CNC(=O)OC(C)(C)C)CC1
GI50: > 100 µM (inactive)
--
substance.smiles: Cc1cc2ccccc2n1CC(=O)NCC(C)C
GI50: > 100 µM (inactive)

Lab note: next compound to report on.
Q: I have this compound here, O=C(O)CCC(=O)Nc1ccc2ccccc2c1 , and I need its recorded GI50.
Ans: > 100 µM (inactive)

###

Let's look at some compounds and their measured GI50.
test system: Malme-3M; test: NCI tumour cell line growth inhibition, 48 h
Calls of active or inactive are those of the source. No stated cut-off is given here; in the data, active = GI50 up to about 1.1 µM and inactive = higher.

Q: Give the measured GI50 of CC(C)(C)c1cc(CCCCCCCC2(CCCCCCCc3cc(C(C)(C)C)cc(C(C)(C)C)c3)OC(COCCOCCCCCC#N)C(COCCOCCCCCC#N)O2)cc(C(C)(C)C)c1 (stereo not given) .
Ans: > 100 µM (inactive)

Q: Please do the same for Fc1cccc(C2SCc3nc4cc5ccccc5cc4n32)c1 (stereo not given) as well.
Ans: > 100 µM (inactive)

###

test system: ACHN; experiment: NCI tumour cell line growth inhibition, 48 h
Activity calls are given as the source filed them. Cut-off read from the data, not from the text of the source: active = GI50 up to about 1.1 µM and inactive = higher.
Outcome (select one): active, inactive

These recorded examples may help you get a feel for the data.
compound: O=C(C1OC1c1ccc(O)cc1)C12CC3CC(CC(C3)C1)C2 (stereo unspecified)
discrete.label: inactive
//
compound: C1=C2C3=[N+](CCCC3)CC2Cc2ccsc21 (stereo unspecified)
discrete.label: inactive
//
compound: CCC(=O)Nc1ccc(NCC(=O)Nc2ccc(OC)cc2)cc1
discrete.label: inactive
//
compound: O=C(O)c1cnc(-n2[nH]c3c(c2=O)CCCC3)[nH]c1=O
discrete.label: inactive
//
compound: CN1C(c2ccccc2)CC(=NO)CC1c1ccccc1 (stereo unspecified)
discrete.label: inactive

Q: Write down the call the test reported for this compound. Item: C/C=C1\C=C(OC)CN(CCc2c[nH]c3ccccc23)C1
Ans: inactive

Q: Next up: Clc1cccc(-c2sc(-c3cccs3)cc2Cc2cccs2)c1
Ans: inactive

Q: For Cc1ccc(-c2nc3cc(Cl)ccc3[nH]2)cc1 then?
Ans: inactive

Q: # iterate: CCOC(=O)C1C(=O)CC(=O)C2CCCCC21 (stereo unspecified)
Ans: inactive

Q: What do we get for Cc1n(CC(C)C)c2c([n+]1C)C(=O)c1ccccc1C2=O ?
Ans: active

Q: Also check COc1cccc(C(C#N)NNC(=O)c2c(Cl)c(Cl)c(Cl)c(Cl)c2-c2nc3cc(C(=O)c4ccccc4)ccc3[nH]2)c1O (stereo unspecified)
Ans: inactive

###

test system: CCRF-CEM; test: NCI tumour cell line growth inhibition, 48 h
Active and inactive are the calls of the source. Rule as the data show it: active = GI50 up to about 1.1 µM and inactive = higher.
Parameter call: string, one of true (1) (active), false (0) (inactive)

These recorded examples may help you get a feel for the data.
compound: COc1nc2nccnc2c(=O)n1C
target.desc: CCRF-CEM
discrete.label: false (0)
--
compound: C/C1=C\CC[C@@]2(C)O[C@@H]2C[C@@H]2[C@H](C/C(C)=C/CC1)OC(=O)C21CCN=N1 (stereo not given in full)
target.desc: CCRF-CEM
discrete.label: false (0)
--
compound: CC1OC(OC2C(O)COC(OC3C(C)OC(OC4C(OC(=O)[C@]56CCC(C)(C)C[C@@H]5C5=CCC7[C@@]8(C)C[C@H](O)[C@H](OC9OC(CO)C(O)C(O)C9O)[C@@](C)(CO)[C@@H]8CC[C@@]7(C)[C@]5(C)CC6)OCC(O)C4O)C(O)C3OC3OCC(O)(CO)C3O)C2O)C(O)C(O)C1O (stereo not given in full)
target.desc: CCRF-CEM
discrete.label: false (0)
--
compound: COc1cc2c(cc1O)C(Cc1ccc(OCc3ccccc3)c(OCc3ccccc3)c1)N(C(=O)NCCc1ccccc1)CC2 (stereo not given)
target.desc: CCRF-CEM
discrete.label: false (0)
--
compound: CC1(c2cccs2)CC(c2cccs2)=C(C#N)C(=C(C#N)C#N)N1 (stereo not given)
target.desc: CCRF-CEM
discrete.label: true (1)

Q: How was O=C(O)c1cnc(-n2[nH]c3c(c2=O)CCCC3)[nH]c1=O classified in this test?
Ans: false (0)

###

tested on: UACC-257; experiment: NCI tumour cell line growth inhibition, 48 h
The source made the active and inactive calls. Rule as the data show it: active = GI50 up to about 1.1 µM and inactive = higher.
measurement.name: GI50

Consider the worked cases shown below.
compound: Cc1ccc(S(=O)(=O)N2CCNCCN(S(=O)(=O)c3ccc(C)cc3)CCN(S(=O)(=O)c3ccc(C)cc3)CC2)cc1
GI50: > 100 µM (inactive)
//
compound: CCn1c2c(c3ccccc31)C(c1ccccc1)CC1C(=O)N(c3ccccc3)C(=O)C21 (stereo not given)
GI50: > 100 µM (inactive)
//
compound: Oc1cc(Cc2ccccc2)c(Cc2ccccc2)cc1O
GI50: > 10 µM (inactive)
//
compound: COc1ccc(C2C(=O)C(Cl)N2Nc2nc(C)cc(O)n2)cc1OC (stereo not given)
GI50: 40.6 µM (inactive)

Next compound, please.
Q: // query GI50 value for entry CO/N=C(\C)c1cccc(Nc2c3ccccc3nc3occc23)c1
Ans: 12.5 µM (inactive)

###

test system: SK-MEL-28; assay: NCI tumour cell line growth inhibition, 48 h
The source made the active and inactive calls. No stated cut-off is given here; in the data, active = GI50 up to about 1.1 µM and inactive = higher.
measurement.name: GI50

See these solved cases before continuing.
molecule: COc1cc2c(cc1OC)-c1cc3cc(OC)c(OC)cc3c(C)[n+]1CC2.O=C([O-])CS(=O)(=O)O
target.desc: SK-MEL-28
GI50: > 100 µM (inactive)
--
molecule: CCOC(=O)c1c(-c2ccc(OC)c(O)c2)c(C#N)c(=S)n(C2OC(CO)C(O)C(O)C2O)c1-c1ccccc1 (configuration not stated)
target.desc: SK-MEL-28
GI50: > 100 µM (inactive)
--
molecule: Cc1ccc(S(=O)(=O)N2CCNCCN(S(=O)(=O)c3ccc(C)cc3)CCN(S(=O)(=O)c3ccc(C)cc3)CC2)cc1
target.desc: SK-MEL-28
GI50: > 100 µM (inactive)

Q: What value of measured GI50 is listed for O=C(C1OC1c1ccc(O)cc1)C12CC3CC(CC(C3)C1)C2 (configuration not stated) ?
Ans: > 100 µM (inactive)

Q: Queued: CC1OC(OC2C(O)COC(OC3C(C)OC(OC4C(OC(=O)[C@]56CCC(C)(C)C[C@@H]5C5=CCC7[C@@]8(C)C[C@H](O)[C@H](OC9OC(CO)C(O)C(O)C9O)[C@@](C)(CO)[C@@H]8CC[C@@]7(C)[C@]5(C)CC6)OCC(O)C4O)C(O)C3OC3OCC(O)(CO)C3O)C2O)C(O)C(O)C1O (some centres not stated)
Ans: 3.29 µM (inactive)

Q: Now try OC[C@H]1O[C@@H](n2cnc3c(S)ncnc32)[C@H](O)[C@@H]1O .
Ans: > 2500 µM (inactive)

Q: Subsequent entry: Cc1ccc(/C=c2\c(=O)[nH]c3nc4ccccc4c(=O)n23)cc1
Ans: 43.9 µM (inactive)

###

system: CAKI-1; test: NCI tumour cell line growth inhibition, 48 h
Activity calls are given as the source filed them. Rule as the data show it: active = GI50 up to about 1.1 µM and inactive = higher.
I would appreciate it if you answered using one of these outcomes: active, inactive

Consider the following illustrative entries.
molecule: C/C(CC(=O)Nc1cccc(Cl)c1C)=N\N=C(N)N
discrete.label: inactive

molecule: ClCCN1CCO/C1=N/c1ccc2c(c1)CCCC2
discrete.label: inactive

molecule: Cc1ccc(S(=O)(=O)C2=C(C(C)C)N=NC2(C)C)cc1
discrete.label: inactive

Q: Hello, I am checking results. What call was entered for CCOC(=O)c1cc2c(nc1N)-c1ncccc1CC2 ?
Ans: inactive

Q: Same thing, different molecule: O=C1CSC(c2ccc([N+](=O)[O-])cc2)N1c1ccc(-n2c(-c3ccccc3)nc3ccccc3c2=O)cc1 (stereo unspecified)
Ans: inactive

Q: Same thing, different molecule: C1=C2C3=[N+](CCCC3)CC2Cc2ccsc21 (stereo unspecified)
Ans: inactive

###

// GI50 lookup, one value per entry
test system: BT-549; assay: NCI tumour cell line growth inhibition, 48 h
The source made the active and inactive calls. Rule as the data show it: active = GI50 up to about 1.1 µM and inactive = higher.

compound: Oc1ccc(Cn2c(-c3ccc(O)cc3)nc3ccccc32)cc1
target.desc: BT-549
GI50: > 100 µM (inactive)
--
compound: CC(C)c1cc(C(C)C)c(Cl)c(Cl)c1O.CC(C)c1cc(Cl)c(O)c(C(C)C)c1Cl
target.desc: BT-549
GI50: 19.9 µM (inactive)
--
compound: C/N=c1\sc2c(n1C)C(=O)c1ccccc1C2=O
target.desc: BT-549
GI50: 1.76 µM (inactive)
--
compound: COc1ccc2nc3c(c(N)c2c1)C1CCC3C1(C)C (stereo unspecified)
target.desc: BT-549
GI50: > 100 µM (inactive)
--
compound: Nn1c(-c2ccccc2)nn(C(=O)c2ccccc2)c1=O
target.desc: BT-549
GI50: > 100 µM (inactive)

Q: GI50 of COc1ccc(/C=C2\CC3C4CC=C5C[C@@H](N6CCCC6)CC[C@]5(C)C4CC[C@]3(C)[C@H]2O)cc1OC (stereo partly specified) on BT-549?
Ans: 8.87 µM (inactive)

Data provenance is ChEMBL document CHEMBL1201862.
